Numbers sourced from the supplement of paper PMC6757056.

Listing of entries alongside the reported normalized RNA/DNA level without ligand (log10).
B1: library; a variant is named by its letters at N, in order (parent)
chain: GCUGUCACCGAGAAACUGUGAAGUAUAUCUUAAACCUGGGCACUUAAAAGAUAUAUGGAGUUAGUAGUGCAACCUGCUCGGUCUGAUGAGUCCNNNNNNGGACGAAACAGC

variants of: B1; test: normalized RNA/DNA level without ligand (relative to sTRSVctl = 100) (log10 (% of sTRSVctl)); HEK293T; ligand: cyclic di-GMP (c-di-GMP-II aptamer); higher = less ribozyme self-cleavage, higher mRNA level; details: reporter: mCherry (pCS4076), ligand present: no
READOUT_TYPE: normalized RNA/DNA level without ligand (log10)

# MUT, REPORTED_RESULT
rows = [
    ("CCCGAG", 1.56),
    ("GAGUAG", 1.84),
    ("GUUGCG", 1.81),
    ("UCGCUU", 1.66),
    ("AAUUUC", 1.72),
    ("CCUAAC", 1.66),
    ("GCUGUU", 1.63),
    ("GCACUG", 1.54),
    ("CAUUGU", 1.78),
    ("AUCCGG", 1.85),
    ("CAAUUA", 1.32),
    ("CUACAG", 1.73),
    ("UCUUAC", 1.7),
    ("GAACAC", 1.64),
    ("GUUCCA", 1.65),
    ("UGGGGA", 1.58),
    ("UUAGGC", 1.7),
    ("GGGUAG", 1.85),
    ("GACGAA", 1.43),
    ("GUAAAU", 1.6),
    ("CACAAC", 1.59),
    ("UGGAAU", 1.57),
    ("GUCGUG", 1.62),
    ("UCAAGA", 1.52),
    ("CAGUUG", 1.76),
    ("AUCGCC", 1.78),
    ("AGAAGG", 1.5),
    ("AUAACU", 1.67),
    ("UCCUAG", 1.71),
    ("AGGUUC", 1.75),
    ("UGGUCC", 1.86),
    ("AUGGCU", 1.75),
    ("ACCGGA", 1.51),
    ("GAACGC", 1.64),
    ("UGGACA", 1.71),
    ("CACUUA", 1.43),
    ("UUCCUG", 1.78),
    ("GUGGCG", 1.85),
    ("AAGAAU", 1.54),
    ("UUAAUC", 1.77),
    ("CAAAGC", 1.72),
    ("AUGCUA", 1.57),
    ("GACGGA", 1.47),
    ("CCACAG", 1.54),
]
